System: Caco-2
METHOD SUMMARY: drug sensitivity score (DSS) for viability; higher = more toxic; extreme values may be limits of the assay
EXPERIMENTAL CONTEXT: 72 h
EXPERIMENTAL ENDPOINT: drug sensitivity score
Respond using a number only.

Form field: drug sensitivity score recorded for COc1ccc(C(=O)N2CCCc3cc(C4=NNC(=O)SC4C)ccc32)cc1OC (stereo not drawn) with Caco-2 (enter value)
3.2

Further, for Nc1nc(NC2CC2)cc(-c2cccc(Cl)c2Cl)n1 ?
0

Further, for Cc1cn(C[C@H](N)C(=O)O)c(=O)n(Cc2ccsc2C(=O)O)c1=O ?
0

Further, for COc1ccc(Nc2ncnc3ccc(OC)cc23)cc1 ?
0

Further, for O=C(NC[C@H](O)CO)c1ccncc1Nc1ccc(I)cc1F ?
6.9

Further, for N[C@@H](C(=O)O)[C@@H](OCc1ccccc1)C(=O)O.N[C@H](C(=O)O)[C@H](OCc1ccccc1)C(=O)O ?
0

Further, for N#Cc1ccc(Oc2ccc3c(c2)COB3O)cc1 ?
0

Further, for CC(=O)OCC(=O)[C@@]1(O)CC[C@H]2[C@@H]3CCC4=CC(=O)C=C[C@]4(C)[C@H]3[C@@H](O)C[C@@]21C [prednisolone-acetate] ?
0.1

Further, for Clc1ccc(CO/N=C(\Cn2ccnc2)c2ccc(Cl)cc2Cl)c(Cl)c1 ?
1.1

Further, for O=C(NCCCCN1CCN(c2cccc(Cl)c2Cl)CC1)c1ccc2c(c1)Cc1ccccc1-2 ?
0

Further, for COCCOC(=O)C1=C(C)NC(C)=C(C(=O)OC(C)C)C1c1cccc([N+](=O)[O-])c1 (stereo not drawn) ?
0

Further, for CC(C)(O)CNc1nc(Nc2ccnc(C(F)(F)F)c2)nc(-c2cccc(C(F)(F)F)n2)n1 ?
0.5

Further, for CCOC(=O)CC(=O)N1CCSC1COc1ccccc1OC (stereo not drawn) ?
0

Further, for CNCC[C@@H](Oc1ccccc1C)c1ccccc1 ?
0

Further, for C[C@@H](Oc1cc(-n2cnc3ccc(CN4CCN(C)CC4)cc32)sc1C(N)=O)c1ccccc1C(F)(F)F ?
11.1

Further, for CC1(C)O[C@@H]2C[C@H]3[C@@H]4C[C@H](F)C5=CC(=O)C=C[C@]5(C)[C@H]4[C@@H](O)C[C@]3(C)[C@]2(C(=O)CO)O1 [flunisolide] ?
1

Further, for c1ccc2c(Cc3c[nH]c4ccccc34)c[nH]c2c1 ?
0

Further, for O=C1c2cc(Cl)ccc2OC2CCON12 (stereo not drawn) ?
0

###

System: Calu-3
METHOD SUMMARY: cell viability relative to DMSO; higher = less toxic
EXPERIMENTAL CONTEXT: 72 h; 1 nM
Would you mind telling me the reported cell viability of each entry?
The reply should contain only the number, in %.

What does the data say about its cell viability? Entry: Cc1nc(Nc2ccc(F)cc2)nc(N2CCc3ccccc3C2C)c1C (stereo not given)
97.5

Further, for O=S(=O)(O)CCS ?
98.4

Further, for O=C1NC(=O)C(c2ccccc2[N+](=O)[O-])=C1Nc1ccc(O)c(Cl)c1 ?
91.4

Further, for COc1cc(NS(=O)(=O)c2ccc(N)cc2)nc(OC)n1 ?
103

Further, for Cc1cnc(Nc2ccc(OCCN3CCCC3)cc2)nc1Nc1cccc(S(=O)(=O)NC(C)(C)C)c1 ?
107

###

Would you mind telling me the reported cell viability of each entry?
System: Vero E6
METHOD SUMMARY: cell viability relative to DMSO; higher = less toxic
EXPERIMENTAL CONTEXT: 72 h; 1000 nM
The reply should contain only the number, in %.

Form field: cell viability recorded for O=c1c(O[C@@H]2O[C@H](CO)[C@H](O)[C@H](O)[C@H]2O)c(-c2ccc(O)c(O)c2)oc2cc(O)cc(O)c12 with Vero E6 (enter value)
97.7

Further, for CCN(Cc1ccncc1)C(=O)C(CO)c1ccccc1 (centres undefined) [tropicamide] ?
84.8

Further, for COc1cc2c(cc1OC)[C@@]13CCN4CC5=CCO[C@H]6CC(=O)N2[C@H]1[C@H]6[C@H]5C[C@H]43 ?
99

Further, for CC(C)SC(=N)N ?
89.9

###

Would you mind telling me the reported cell viability of each entry?
Tested on: HepG2
METHOD SUMMARY: cell viability relative to DMSO; higher = less toxic
EXPERIMENTAL CONTEXT: 72 h; 10000 nM
The reply should contain only the number, in %.

What does the data say about its cell viability? Entry: O=[N+]([O-])c1ccc2c(c1)S(=O)(=O)C=C2 [stattic]
-0.2

Further, for O=C(O)c1cccnc1Nc1cccc(C(F)(F)F)c1 [niflumic-acid] ?
104

Further, for CNC(=O)[C@H]1O[C@@H](n2cnc3c(NCc4cccc(I)c4)nc(Cl)nc32)[C@H](O)[C@@H]1O [CF102] ?
99.3

Further, for O=C(O)Cn1c2c(c3cc(F)ccc31)CN(C(=O)c1cccc3ccccc13)CC2 [setipiprant] ?
102

Further, for CN1CCCCC1Cn1cc(C(=O)c2cc([N+](=O)[O-])ccc2I)c2ccccc21 (configuration not stated) [AM-1241] ?
102

Further, for [Cl][Ti][Cl].c1cc[cH-]c1.c1cc[cH-]c1 [titanocene-dichloride] ?
101

Further, for CS(=O)(=O)OC[C@H](O)[C@@H](O)COS(C)(=O)=O [treosulfan] ?
108

Further, for CCCCCCCCCCCCCCCC[N+](C)(C)C [cetrimonium] ?
28

Further, for CN(C)Cc1c(C(=O)NCCOc2ccc(C(=O)NO)cc2)oc2ccccc12 ?
0.1

Further, for COc1ccc(CNC(=O)c2sc3nc(C)cc(C)c3c2N)cc1 ?
107

Further, for C=C(NC(=O)C(=C)NC(=O)c1csc(C2=N[C@@H]3c4csc(n4)[C@H]4NC(=O)c5csc(n5)[C@H]([C@](C)(O)[C@@H](C)O)NC(=O)[C@H]5CSC(=N5)/C(=C/C)NC(=O)[C@H]([C@@H](C)O)NC(=O)c5csc(n5)[C@]3(CC2)NC(=O)[C@H](C)NC(=O)C(=C)NC(=O)[C@H](C)NC(=O)[C@H]([C@@H](C)CC)N[C@@H]2C=Cc3c([C@H](C)O)cc(nc3[C@H]2O)C(=O)O[C@@H]4C)n1)C(N)=O [thiostrepton] ?
84.5

Further, for O=C(NCCCCN1CCN(c2cccc(Cl)c2Cl)CC1)c1ccc2c(c1)Cc1ccccc1-2 [NGB-2904] ?
92.9

Further, for O=C1NC(=O)C(c2ccccc2[N+](=O)[O-])=C1Nc1ccc(O)c(Cl)c1 ?
100

Further, for [O-][S+](c1ccccc1)c1ccc2nnnn2n1 (configuration not stated) [Ro-106-9920] ?
1.1

Further, for C[N+]1(C)CCCC(OC(=O)C(O)(c2ccccc2)c2ccccc2)C1 (configuration not stated) [mepenzolate] ?
94.3

Further, for NC(=O)N1c2ccccc2C=Cc2ccccc21 [carbamazepine] ?
101

Further, for CCCCCCc1ccc(O)cc1O.Nc1c2ccccc2nc2ccccc12 [acrisorcin] ?
0.3

###

Test system: A549-ACE2
METHOD SUMMARY: drug-induced phospholipidosis relative to tamoxifen; higher = more phospholipidosis
EXPERIMENTAL CONTEXT: 10 µM; 72 h
Would you mind telling me the reported drug-induced phospholipidosis of each entry?
The reply should contain only the number, in %.

What does the data say about its drug-induced phospholipidosis? Entry: CCCCCCCCNC(C)C(O)c1ccc(SC(C)C)cc1 (stereo not given)
53.9

Further, for C[C@H]1[C@H](NC(=O)/C(=N\OC(C)(C)C(=O)O)c2csc(N)n2)C(=O)N1S(=O)(=O)O ?
3.05

Further, for Cc1nc(Nc2ccc(F)cc2)nc(N2CCc3ccccc3C2C)c1C (stereo not given) ?
13.8

Further, for CC(C)Oc1ccc(-c2nc(-c3cccc4c3CC[C@@H]4NCCO)no2)cc1C#N ?
122

Further, for C=C[C@@]1(C)CC(=O)[C@]2(O)[C@@]3(C)[C@@H](O)CCC(C)(C)[C@@H]3[C@H](OC(=O)CCN(C)C)[C@H](OC(C)=O)[C@@]2(C)O1 [colforsin-daproate] ?
0.457

###

Tested on: Vero E6
METHOD SUMMARY: cell viability relative to DMSO; higher = less toxic
EXPERIMENTAL CONTEXT: 72 h; 1 nM
Would you mind telling me the reported cell viability of each entry?

Form field: cell viability recorded for COC(=O)C1=C(C#N)NC(C)=C(C(=O)OC(C)C)C1c1cccc([N+](=O)[O-])c1 (configuration not stated) with Vero E6 (enter value)
95.9%

Further, for C=C[C@@]1(C)CC(=O)[C@]2(O)[C@@]3(C)[C@@H](O)CCC(C)(C)[C@@H]3[C@H](OC(=O)CCN(C)C)[C@H](OC(C)=O)[C@@]2(C)O1 [colforsin-daproate] ?
98%

Further, for CN(CCOc1ccc(NS(C)(=O)=O)cc1)CCc1ccc(NS(C)(=O)=O)cc1 [dofetilide] ?
92.6%

Further, for COc1ccc(C[C@H]2NC[C@H](O)[C@H]2OC(C)=O)cc1 ?
94.1%

Further, for COc1cc(F)c(C(C)C)cc1-c1ccc(C(F)(F)F)cc1CN1C(=O)O[C@H](c2cc(C(F)(F)F)cc(C(F)(F)F)c2)[C@@H]1C ?
108%

Further, for COc1cc2ncnc(Oc3cccc(NC(=O)Nc4cc(C(C)(C)C(F)(F)F)on4)c3)c2cc1OC ?
100%

Further, for CCn1c(N)c(C(=O)NC)c(=O)c2ccc(C#C[C@@](C)(O)COC)nc21 ?
94.1%

Further, for CC(C)=CCC/C(C)=C/CC/C(C)=C/C=C/C(C)=C/C(=O)O ?
101%

Further, for Cc1cc(-c2nc3cc(F)ccc3s2)ccc1NC(=O)[C@@H](N)CCCCN ?
92.3%

Further, for O=C1NC(=O)C(c2cnc3ccccn23)=C1c1cn2c3c(cc(F)cc13)CN(C(=O)N1CCCCC1)CC2 ?
105%

Further, for NCCc1ccc(O)c(O)c1 ?
103%

Further, for Cc1[nH]c(/C=C2\C(=O)Nc3ccc(S(=O)(=O)N(C)c4cccc(Cl)c4)cc32)c(C)c1C(=O)N1CCN(C)CC1 ?
101%

Further, for [O-][S+](c1ccccc1)c1ccc2nnnn2n1 (configuration not stated) ?
97.7%

Further, for CN1CCN(C(c2ccccc2)c2ccc(Cl)cc2)CC1 (configuration not stated) ?
105%

Further, for Cc1c(NC(=O)c2cccnc2)c(=O)n(-c2ccccc2)n1C ?
105%

Further, for O=C(NCCCCN1CCN(c2cccc(Cl)c2Cl)CC1)c1ccc2c(c1)Cc1ccccc1-2 ?
96.7%

Further, for O=C(O)c1cc(/N=N/c2ccc(S(=O)(=O)Nc3ccccn3)cc2)ccc1O ?
104%

Recorded values, source the supplement of paper PMC13380429.
